system: M19-MEL; assay: NCI tumour cell line growth inhibition, 48 h
Active and inactive are the calls of the source. No stated cut-off is given here; in the data, active = GI50 up to about 1.1 µM and inactive = higher.
This listing pairs compounds with measured GI50.

Compound	GI50
COC(=O)C1CCc2c(OC)ccc(OC)c2C1=O (stereo not given)	> 100 µM (inactive)
NC(=S)N/N=C1\CCCC\C1=C/c1ccccc1	81.1 µM (inactive)
NC(=O)c1c2c(cc3c(=O)c4ccccc4[nH]c13)CCCC2	> 100 µM (inactive)
N#Cc1ccc(OCCSCCCCCCCCCCSCCOc2ccc(C#N)cc2)cc1	> 100 µM (inactive)
COc1cc2c(oc(=O)c3cc4ccoc4c(OC)c32)c2cccc(O)c12	> 100 µM (inactive)
